- test_system: CDK7/cyclinH/MAT1 trimeric complex (Homo sapiens, UniProt P50613)
- Sequence (P50613 whole entry): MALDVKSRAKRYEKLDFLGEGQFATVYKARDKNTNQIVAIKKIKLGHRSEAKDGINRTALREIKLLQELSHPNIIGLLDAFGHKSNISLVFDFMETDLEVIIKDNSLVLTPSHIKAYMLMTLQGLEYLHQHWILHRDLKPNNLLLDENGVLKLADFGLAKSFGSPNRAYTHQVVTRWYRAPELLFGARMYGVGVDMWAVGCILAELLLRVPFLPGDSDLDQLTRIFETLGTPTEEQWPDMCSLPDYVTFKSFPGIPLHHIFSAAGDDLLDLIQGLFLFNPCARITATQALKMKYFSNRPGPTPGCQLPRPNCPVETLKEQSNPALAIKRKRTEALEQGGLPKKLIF
- Sequence (P51946 whole entry partner): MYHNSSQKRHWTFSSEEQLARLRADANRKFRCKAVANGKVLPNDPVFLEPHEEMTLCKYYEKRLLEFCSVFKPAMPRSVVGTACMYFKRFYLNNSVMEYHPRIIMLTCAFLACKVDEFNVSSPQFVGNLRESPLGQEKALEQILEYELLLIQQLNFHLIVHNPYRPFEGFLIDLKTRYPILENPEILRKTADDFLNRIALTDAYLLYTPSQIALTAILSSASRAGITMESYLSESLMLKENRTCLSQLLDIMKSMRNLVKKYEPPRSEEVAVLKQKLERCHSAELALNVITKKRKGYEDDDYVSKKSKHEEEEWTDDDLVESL
- Sequence (P51948 whole entry partner): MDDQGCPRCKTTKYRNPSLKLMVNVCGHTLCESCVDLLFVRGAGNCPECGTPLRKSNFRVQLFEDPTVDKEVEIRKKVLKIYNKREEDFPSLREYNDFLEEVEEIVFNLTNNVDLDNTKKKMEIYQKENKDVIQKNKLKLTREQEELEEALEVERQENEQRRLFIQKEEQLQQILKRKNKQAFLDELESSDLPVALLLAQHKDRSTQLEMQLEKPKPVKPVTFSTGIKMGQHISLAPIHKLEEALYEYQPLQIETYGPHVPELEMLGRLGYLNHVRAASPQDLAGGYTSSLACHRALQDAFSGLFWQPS
- assay_overview: In vitro CDK7 assay, potency of irreversible covalent inhibitors (kinact/KI), coupled PK/LDH ADP readout at 340 nm
- settings: read-out: CDK7 (20 nM enz.) (kinact/KI, M^−1*s^−1), 20 nM enzyme
Here the recorded kinact/KI is given for each entry.
Report the figure in M⁻¹ s⁻¹ without appending any unit label.

// solved cases for kinact/KI follow
>>> print(df.to_string())
                                   compound                               test_system  assay_readout  unit_abbreviation   val
0  C=CC(=O)N1CC(N2CCC(c3cc4c(cn3)O[C@H](C)c3c(N5CCOCC5)ccnc3N4)CC2)C1 (single isomer, unassigned) [compound 171]  CDK7/cyclinH/MAT1 trimeric complex (Homo sapiens, UniProt P50613)      kinact/KI            M⁻¹ s⁻¹  1850
1  C#Cc1cc(C2CCN(C3CN(C(=O)C=C)C3)CC2)cc2c1O[C@H](C)c1c(N3CCOCC3)ccnc1N2 (single isomer, unassigned)  CDK7/cyclinH/MAT1 trimeric complex (Homo sapiens, UniProt P50613)      kinact/KI            M⁻¹ s⁻¹  44.2
2  CC#CC(=O)N1CCC(n2ccc(-c3cc4c(c(C)n3)OCc3c(N5CCOCC5)ccnc3N4)cc2=O)CC1  CDK7/cyclinH/MAT1 trimeric complex (Homo sapiens, UniProt P50613)      kinact/KI            M⁻¹ s⁻¹   714

kinact/KI for CDK7/cyclinH/MAT1 trimeric complex (Homo sapiens, UniProt P50613) with input C#CCCN(C)C/C=C/C(=O)N1CC(N2CCC(c3ccc4c(c3)Nc3nccc(C5CCOCC5)c3C(C)O4)CC2)C1 (stereo not drawn) equals 2100

kinact/KI for CDK7/cyclinH/MAT1 trimeric complex (Homo sapiens, UniProt P50613) with input C=CC(=O)N1CC[C@H](N2CC(c3cc(C)c4c(c3)Nc3nccc(-c5cnn(C)c5)c3CO4)C2)C1 (single isomer, unassigned) [Compound 192] equals 456

kinact/KI for CDK7/cyclinH/MAT1 trimeric complex (Homo sapiens, UniProt P50613) with input C=CC(=O)N1CC[C@@H](N2CC(c3cc(C#N)c4c(c3)Nc3nccc(N5CCOCC5)c3[C@H](C)O4)C2)C1 (single isomer, unassigned) equals 16.1
